Each entry below carries its recorded %Inh.
System: MKNK2;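 further: KINOMEscan kinase panel screen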
experimental_parameters: concentration: 1 μM, replicates: in singlicate; n = 1

{"columns": ["compound", "units_text", "%Inh"],
 "data": [
  ["CCCc1ccc(S(=O)(=O)NC2CCN(c3ccnc(Nc4ccc(F)cc4)n3)C2)cc1 (centres unmarked)", "%", 8],
  ["Nc1nc(-c2nccs2)c(-c2ccnc3ccccc23)s1", "%", 6],
  ["COc1ccc(CNC(=O)NC2CCN(c3ccnc(Nc4cc(OC)c(OC)c(OC)c4)n3)C2)cc1 (centres unmarked)", "%", 30],
  ["Cc1cccc(-c2nc(Nc3ccncc3)c3ccccc3n2)n1", "%", 0],
  ["Cc1ccc(NC(=O)Nc2cc(C(C)(C)C)nn2-c2ccccc2)cc1", "%", 91.9],
  ["Cc1cccc(-c2nc(Nc3cccc(C(N)=O)c3)c3ccccc3n2)n1", "%", 0],
  ["COc1ccc(Nc2nccc(-c3cccc(NC(=O)c4cc5cc(F)ccc5[nH]4)c3)n2)cc1", "%", 0],
  ["CS(=O)(=O)c1ccc(-c2c(-c3ncn[nH]3)sc(N3CCOCC3)c2C#N)cc1", "%", 0]
]}
